- System: T-47D Tam2
- experimentalDetails: drug sensitivity score (DSS) (DSS (dimensionless)); higher = more sensitive; extreme values may be limits of the assay
- conditionsUsed: 4-OH-tamoxifen in medium 1 µM; 72 h
property: drug sensitivity score

{"columns": ["smilesEntry", "property", "dataValue"],
 "data": [
  ["Cc1ccc(NC(=O)c2ccc(CN3CCN(C)CC3)cc2)cc1Nc1nc(-c2cccnc2)cs1", "drug sensitivity score", 1.99],
  ["Nc1nc2[nH]cc(CCc3ccc(C(=O)N[C@@H](CCC(=O)O)C(=O)O)cc3)c2c(=O)[nH]1", "drug sensitivity score", 0],
  ["NCCCNCCSP(=O)(O)O", "drug sensitivity score", 0],
  ["C[C@]1(O)C[C@@H](c2nc(-c3ccc4ccc(-c5ccccc5)nc4c3)c3c(N)nccn32)C1", "drug sensitivity score", 1.19],
  ["O=c1[nH]c(=O)n([C@H]2C[C@H](O)[C@@H](CO)O2)cc1F", "drug sensitivity score", 1.26],
  ["Cn1c(=O)c(F)c(Nc2ccc(I)cc2F)c2c(=O)n(C[C@@H](O)CO)cnc21", "drug sensitivity score", 0.474],
  ["COC(=O)c1ccc2c(c1)NC(=O)/C2=C(\\Nc1ccc(N(C)C(=O)CN2CCN(C)CC2)cc1)c1ccccc1", "drug sensitivity score", 0.209],
  ["COc1cc2c(cc1O)CC[C@@H]1[C@@H]2CC[C@]2(C)[C@@H](O)CC[C@@H]12", "drug sensitivity score", 1.01],
  ["CCN1CCN(c2ccc(Nc3cc(N(C)C(=O)Nc4c(Cl)c(OC)cc(OC)c4Cl)ncn3)cc2)CC1", "drug sensitivity score", 0],
  ["S=c1[nH]cnc2nc[nH]c12", "drug sensitivity score", 0]
]}

====

- System: ZR-75-1 Tam2
- experimentalDetails: viability inhibition at highest dose (% inhibition); higher = more growth inhibition
- conditionsUsed: 4-OH-tamoxifen in medium 1 µM; 72 h
viability inhibition at highest dose reference

{"columns": ["molecule", "viability inhibition at highest dose"],
 "data": [
  ["CC(C)Cn1cnc2c(N)nc3ccccc3c21 [Imiquimod] (drug 10000 nM)", -8.03],
  ["Cc1ccc(-c2cc(C(F)(F)F)nn2-c2ccc(S(N)(=O)=O)cc2)cc1 [Celecoxib] (drug 10000 nM)", -10.3],
  ["O=P1(N(CCCl)CCCl)NCCCO1 (centres undefined) [Clafen (Cyclophosphamide, Endoxan)] (drug 40000 nM)", -3.35],
  ["C/C(=C\\c1csc(C)n1)[C@@H]1C[C@@H]2O[C@]2(C)CCC[C@H](C)[C@H](O)[C@@H](C)C(=O)C(C)(C)[C@@H](O)CC(=O)N1 [Ixabepilone] (drug 1000 nM)", -5.09]
]}

====

drug sensitivity score reference
- System: T-47D
- experimentalDetails: drug sensitivity score (DSS) (DSS (dimensionless)); higher = more sensitive; extreme values may be limits of the assay
- conditionsUsed: 4-OH-tamoxifen in medium 0 µM; 72 h

{"columns": ["compound", "drug sensitivity score"],
 "data": [
  ["CCc1cncnc1N1CCN(Cc2nc3ccc(C(F)(F)F)cc3[nH]2)CC1", 2.8],
  ["CN1CCN(c2ccc3nc(-c4c(N)c5c(F)cccc5[nH]c4=O)[nH]c3c2)CC1", 0],
  ["Oc1ccc2c(c1)CC[C@H](c1ccccc1)[C@@H]2c1ccc(OCCN2CCCC2)cc1", 0],
  ["c1ccc2c(CCNc3ccc(Nc4ccncc4)cc3)c[nH]c2c1", 0.192],
  ["Cc1ccc(NC(=O)c2ccc(CN3CCN(C)CC3)cc2)cc1Nc1nccc(-c2cccnc2)n1", 0],
  ["Nc1nc2[nH]cnc2c(=S)[nH]1", 1.83],
  ["CNNCc1ccc(C(=O)NC(C)C)cc1", 0],
  ["N.N.[Cl][Pt][Cl] [Cisplatin]", 0],
  ["Cc1sc2c(c1C)C(c1ccc(Cl)cc1)=N[C@@H](CC(=O)OC(C)(C)C)c1nnc(C)n1-2 [(+)JQ1]", 5.63],
  ["Clc1ccc(Nc2nnc(Cc3ccncc3)c3ccccc23)cc1", 0]
]}
